# procedure.text: Antagonist activity at human muscarinic acetylcholine M4 receptor expressed in CHO cells assessed as inhibition of acetylcholine-induced calcium mobilization relative to control
# Assay type: cell-based
# Design: concentration or dose not given beside the values
# experimental.conditions: concentration not given here
Entries and their inhibition
property: inhibition (%)

                               input_smiles  value
0  CC(=O)Nc1ccc(-c2ccc(N[C@H]3C[C@@H]4CN(CC5CCOCC5)C[C@@H]4C3)nn2)cc1      5
1  Fc1ccc(Cl)c(-c2ccc(N[C@H]3C[C@@H]4CN(CC5CCOCC5)C[C@@H]4C3)nn2)c1    3.3
2  Fc1ccc(F)c(-c2ccc(N[C@H]3C[C@@H]4CN(CC5CCOCC5)C[C@@H]4C3)nn2)c1      4
3  Fc1ccccc1-c1ccc(N[C@H]2C[C@@H]3CN(CC4CCOCC4)C[C@@H]3C2)nn1      4
4  c1cncc(-c2ccc(N[C@H]3C[C@@H]4CN(CC5CCOCC5)C[C@@H]4C3)nn2)c1      7
5  Fc1cc(F)c(F)c(-c2ccc(N[C@H]3C[C@@H]4CN(CC5CCOCC5)C[C@@H]4C3)nn2)c1      3

---

# target.desc: Sigma non-opioid intracellular receptor 1 (Homo sapiens, UniProt Q99720)
# Sequence (Q99720 whole entry): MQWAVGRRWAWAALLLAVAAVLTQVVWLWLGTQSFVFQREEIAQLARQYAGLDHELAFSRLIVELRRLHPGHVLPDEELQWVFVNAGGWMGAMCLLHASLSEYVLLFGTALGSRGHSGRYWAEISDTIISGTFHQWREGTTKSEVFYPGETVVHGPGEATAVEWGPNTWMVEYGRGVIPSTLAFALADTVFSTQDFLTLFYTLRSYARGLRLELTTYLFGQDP
# procedure.text: Inhibition of human sigma1 receptor by radioligand binding assay
pKi: −log10 of the molar value.
property: pKi

>>> print(df.to_string())
                               input_smiles  value
0  Fc1cc(F)c(F)c(-c2ccc(N[C@H]3C[C@@H]4CN(CC5CCOCC5)C[C@@H]4C3)nn2)c1   7.77

---

# procedure.text: Tmax in Beagle dog at 3 mg/kg, po measured upto 24 hrs by LC-MS/MS analysis
# Assay type: ADME, organism-based, Canis lupus familiaris
# experimental.conditions: in vivo
property: Tmax

                               input_smiles  value
0  Fc1cc(F)c(F)c(-c2ccc(N[C@H]3C[C@@H]4CN(CC5CCOCC5)C[C@@H]4C3)nn2)c1   17 h

---

# procedure.text: AUC (0 to infinity) in Sprague-Dawley rat at 10 mg/kg, po measured upto 24 hrs by LC-MS/MS analysis
# Assay type: ADME, organism-based
# Design: route oral, dose 10 mg/kg, time <=24
# experimental.conditions: in vivo
property: AUC (ng·h/mL)

>>> print(df.to_string())
                               input_smiles  value
0  Fc1cc(F)c(F)c(-c2ccc(N[C@H]3C[C@@H]4CN(CC5CCOCC5)C[C@@H]4C3)nn2)c1  30000

---

# procedure.text: Clearance in Beagle dog plasma at 1.0 mg/kg, iv measured upto 24 hrs by LC-MS/MS analysis
# Assay type: ADME, organism-based, Canis lupus familiaris
property: clearance (mL/min/kg)

>>> print(df.to_string())
                               input_smiles   property  value
0  Fc1cc(F)c(F)c(-c2ccc(N[C@H]3C[C@@H]4CN(CC5CCOCC5)C[C@@H]4C3)nn2)c1  clearance     43

---

# target.desc: Voltage-gated inwardly rectifying potassium channel KCNH2 (Homo sapiens)
# Sequence (Q12809 whole entry): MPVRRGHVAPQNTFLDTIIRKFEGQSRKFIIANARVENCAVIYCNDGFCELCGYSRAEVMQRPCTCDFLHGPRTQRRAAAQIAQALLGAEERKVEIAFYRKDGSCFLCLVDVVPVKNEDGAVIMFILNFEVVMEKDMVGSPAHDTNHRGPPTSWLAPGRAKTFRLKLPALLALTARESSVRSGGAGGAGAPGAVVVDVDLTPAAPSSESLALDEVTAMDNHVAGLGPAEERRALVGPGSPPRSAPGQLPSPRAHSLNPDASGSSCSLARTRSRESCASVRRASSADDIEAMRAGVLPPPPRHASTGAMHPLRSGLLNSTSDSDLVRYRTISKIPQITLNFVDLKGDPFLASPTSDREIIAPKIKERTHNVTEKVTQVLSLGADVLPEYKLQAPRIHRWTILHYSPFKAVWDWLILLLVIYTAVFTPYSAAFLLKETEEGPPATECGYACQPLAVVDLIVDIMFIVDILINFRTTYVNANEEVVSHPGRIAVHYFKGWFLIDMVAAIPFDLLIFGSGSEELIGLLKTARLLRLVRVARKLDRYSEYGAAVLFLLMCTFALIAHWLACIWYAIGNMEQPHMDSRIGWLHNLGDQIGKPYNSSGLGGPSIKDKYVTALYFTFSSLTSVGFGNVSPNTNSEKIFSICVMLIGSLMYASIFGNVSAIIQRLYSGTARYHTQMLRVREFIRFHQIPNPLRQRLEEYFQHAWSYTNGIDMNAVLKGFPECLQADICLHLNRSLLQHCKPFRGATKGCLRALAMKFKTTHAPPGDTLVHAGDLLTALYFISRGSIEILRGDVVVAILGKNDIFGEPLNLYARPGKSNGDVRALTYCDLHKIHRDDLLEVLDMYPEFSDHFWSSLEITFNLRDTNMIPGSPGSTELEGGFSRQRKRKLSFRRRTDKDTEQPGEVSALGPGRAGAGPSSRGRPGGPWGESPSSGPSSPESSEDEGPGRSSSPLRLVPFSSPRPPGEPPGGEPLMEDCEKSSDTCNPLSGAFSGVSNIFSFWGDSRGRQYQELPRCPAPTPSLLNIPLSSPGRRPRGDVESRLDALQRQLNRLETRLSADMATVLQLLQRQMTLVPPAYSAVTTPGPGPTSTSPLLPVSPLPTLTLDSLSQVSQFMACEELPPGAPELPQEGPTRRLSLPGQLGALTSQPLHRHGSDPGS
# procedure.text: Inhibition of human ERG by patch clamp assay
property: IC50 (nM)

>>> print(df.to_string())
                               input_smiles  unit_text  value
0  Fc1cc(F)c(F)c(-c2ccc(N[C@H]3C[C@@H]4CN(CC5CCOCC5)C[C@@H]4C3)nn2)c1         nM    431

---

# target.desc: CYP1A2 (Homo sapiens, UniProt P05177)
# procedure.text: Induction of CYP1A2 in human hepatocytes relative to control
# Assay type: ADME, cell-based, Hepatocyte
property: Emax (%)

                               input_smiles  unit_text  value
0  Fc1cc(F)c(F)c(-c2ccc(N[C@H]3C[C@@H]4CN(CC5CCOCC5)C[C@@H]4C3)nn2)c1          %    2.1

---

# target.desc: Cytochrome P450 2D6 (Homo sapiens)
# Sequence (P10635 whole entry): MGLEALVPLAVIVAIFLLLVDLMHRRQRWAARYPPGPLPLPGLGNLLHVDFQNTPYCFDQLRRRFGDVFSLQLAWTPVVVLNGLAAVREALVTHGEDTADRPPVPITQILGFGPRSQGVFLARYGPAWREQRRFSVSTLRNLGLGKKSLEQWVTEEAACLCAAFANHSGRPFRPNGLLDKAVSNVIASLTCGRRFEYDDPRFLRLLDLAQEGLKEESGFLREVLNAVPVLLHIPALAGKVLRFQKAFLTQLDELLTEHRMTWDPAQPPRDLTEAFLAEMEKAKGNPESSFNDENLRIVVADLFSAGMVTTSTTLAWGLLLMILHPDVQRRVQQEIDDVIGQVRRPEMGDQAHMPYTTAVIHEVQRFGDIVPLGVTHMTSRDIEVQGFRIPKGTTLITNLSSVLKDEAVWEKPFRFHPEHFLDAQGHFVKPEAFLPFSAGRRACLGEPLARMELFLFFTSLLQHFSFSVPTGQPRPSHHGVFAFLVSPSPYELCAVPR
# procedure.text: Inhibition of CYP2D6 in human liver microsomes using dextromethorphan as substrate preincubated for 15 mins followed by NADPH addition and measured after 8 mins by LC-MS/MS analysis
# Type: ADME
# experimental.conditions: time 23 min; read-out: INH
property: IC50

>>> df
                               input_smiles  property    value
0  c1ccc(-c2ccc(N[C@H]3C[C@@H]4CN(CC5CCOCC5)C[C@@H]4C3)nn2)cc1      IC50  > 30 µM
1  Fc1ccc(F)c(-c2ccc(N[C@H]3C[C@@H]4CN(CC5CCOCC5)C[C@@H]4C3)nn2)c1      IC50  15.2 µM
2  [2H]C([2H])(C1CCOCC1)N1C[C@H]2C[C@H](Nc3ccc(-c4cc(F)ccc4Cl)nn3)C[C@H]2C1      IC50  > 30 µM
3  [2H]C([2H])(C1CCOCC1)N1C[C@H]2C[C@H](Nc3ccc(-c4cc(F)cc(F)c4F)nn3)C[C@H]2C1      IC50  > 30 µM

---

Reported values: IC50 for UniProtKB P08485, one per item.
Sequence (P08485 whole entry): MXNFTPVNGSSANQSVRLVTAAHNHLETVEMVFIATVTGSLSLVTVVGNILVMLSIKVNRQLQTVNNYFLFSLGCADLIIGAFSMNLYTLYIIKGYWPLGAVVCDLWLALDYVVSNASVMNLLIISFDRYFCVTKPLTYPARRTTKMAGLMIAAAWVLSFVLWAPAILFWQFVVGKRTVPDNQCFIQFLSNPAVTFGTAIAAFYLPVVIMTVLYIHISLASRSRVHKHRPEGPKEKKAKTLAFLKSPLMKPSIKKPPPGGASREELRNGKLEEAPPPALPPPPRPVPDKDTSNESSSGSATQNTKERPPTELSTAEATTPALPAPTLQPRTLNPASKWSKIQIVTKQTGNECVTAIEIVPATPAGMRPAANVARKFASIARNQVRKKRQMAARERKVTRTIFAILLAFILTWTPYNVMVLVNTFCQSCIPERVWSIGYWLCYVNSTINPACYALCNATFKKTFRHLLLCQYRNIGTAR
property: IC50

                               input_smiles   value
0  Fc1cc(F)c(F)c(-c2ccc(N[C@H]3C[C@@H]4CN(CC5CCOCC5)C[C@@H]4C3)nn2)c1  145 nM
1  c1ccc(CN2CCC(CCNc3cc4c(nn3)-c3ccccc3CCCC4)CC2)cc1  597 nM
2  Cn1cc2cc(-c3ccc(N[C@H]4C[C@@H]5CN(CC6CCOCC6)C[C@@H]5C4)nn3)ccc2n1   57 nM

---

Reported values: IC50 for Cytochrome P450 3A4 (Homo sapiens), one per item.
property: IC50 (µM)

>>> df
                               input_smiles  unit_text  bound_sign  value
0  [2H]C([2H])(C1CCOCC1)N1C[C@H]2C[C@H](Nc3ccc(-c4cc(F)cc(F)c4F)nn3)C[C@H]2C1         µM           >     30
1  c1ccc(-c2ccc(N[C@H]3C[C@@H]4CN(CC5CCOCC5)C[C@@H]4C3)nn2)cc1         µM           =   24.4
2  Fc1ccc(F)c(-c2ccc(N[C@H]3C[C@@H]4CN(CC5CCOCC5)C[C@@H]4C3)nn2)c1         µM           =    8.2

---

# target.desc: Cytochrome P450 1A2 (Homo sapiens, UniProt P05177)
# Sequence (P05177 whole entry): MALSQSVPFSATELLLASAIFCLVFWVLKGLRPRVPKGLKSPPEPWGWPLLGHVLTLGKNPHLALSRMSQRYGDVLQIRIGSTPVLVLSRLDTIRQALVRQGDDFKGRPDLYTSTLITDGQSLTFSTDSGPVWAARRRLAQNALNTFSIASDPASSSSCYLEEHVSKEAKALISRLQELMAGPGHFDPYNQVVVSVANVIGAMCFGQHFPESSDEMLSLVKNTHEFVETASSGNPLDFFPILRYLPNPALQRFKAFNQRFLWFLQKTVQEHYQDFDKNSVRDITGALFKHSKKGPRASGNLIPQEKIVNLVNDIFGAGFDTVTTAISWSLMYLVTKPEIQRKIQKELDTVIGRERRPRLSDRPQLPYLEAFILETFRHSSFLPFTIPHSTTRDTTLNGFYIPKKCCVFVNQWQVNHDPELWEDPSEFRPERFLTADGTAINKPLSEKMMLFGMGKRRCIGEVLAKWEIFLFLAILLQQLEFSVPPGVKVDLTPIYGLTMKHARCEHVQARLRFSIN
property: IC50 (µM)

>>> print(df.to_string())
                               input_smiles  unit_text  bound_sign  value
0  Fc1ccc(Cl)c(-c2ccc(N[C@H]3C[C@@H]4CN(CC5CCOCC5)C[C@@H]4C3)nn2)c1         µM           =   1.08
1  [2H]C([2H])(C1CCOCC1)N1C[C@H]2C[C@H](Nc3ccc(-c4cc(F)ccc4Cl)nn3)C[C@H]2C1         µM           >     30
2  [2H]C([2H])(C1CCOCC1)N1C[C@H]2C[C@H](Nc3ccc(-c4cc(F)cc(F)c4F)nn3)C[C@H]2C1         µM           >     30
3  c1ccc(-c2ccc(N[C@H]3C[C@@H]4CN(CC5CCOCC5)C[C@@H]4C3)nn2)cc1         µM           >     30
4  Fc1ccc(F)c(-c2ccc(N[C@H]3C[C@@H]4CN(CC5CCOCC5)C[C@@H]4C3)nn2)c1         µM           =   11.8

---

# target.desc: CYP2B6 (Homo sapiens, UniProt P20813)
# Sequence (P20813 whole entry): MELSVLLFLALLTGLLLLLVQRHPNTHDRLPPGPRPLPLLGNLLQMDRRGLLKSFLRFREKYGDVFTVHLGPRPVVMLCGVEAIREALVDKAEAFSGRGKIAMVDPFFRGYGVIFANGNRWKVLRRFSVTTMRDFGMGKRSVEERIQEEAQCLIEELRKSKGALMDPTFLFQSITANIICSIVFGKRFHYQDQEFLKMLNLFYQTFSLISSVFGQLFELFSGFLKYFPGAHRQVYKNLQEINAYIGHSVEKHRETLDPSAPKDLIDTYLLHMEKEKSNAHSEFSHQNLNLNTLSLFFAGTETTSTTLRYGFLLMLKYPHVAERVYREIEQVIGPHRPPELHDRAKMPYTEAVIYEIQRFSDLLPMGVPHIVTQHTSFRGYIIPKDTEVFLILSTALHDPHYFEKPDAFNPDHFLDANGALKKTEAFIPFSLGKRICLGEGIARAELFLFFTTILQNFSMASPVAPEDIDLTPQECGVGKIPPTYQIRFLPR
# procedure.text: Induction of CYP2B6 in human hepatocytes relative to control
# Type: ADME, cell-based, Hepatocyte
property: Emax (%)

                               input_smiles  value
0  Fc1cc(F)c(F)c(-c2ccc(N[C@H]3C[C@@H]4CN(CC5CCOCC5)C[C@@H]4C3)nn2)c1    2.1

---

# target.desc: Muscarinic acetylcholine receptor M2 (Homo sapiens, UniProt P08172)
# Sequence (P08172 whole entry): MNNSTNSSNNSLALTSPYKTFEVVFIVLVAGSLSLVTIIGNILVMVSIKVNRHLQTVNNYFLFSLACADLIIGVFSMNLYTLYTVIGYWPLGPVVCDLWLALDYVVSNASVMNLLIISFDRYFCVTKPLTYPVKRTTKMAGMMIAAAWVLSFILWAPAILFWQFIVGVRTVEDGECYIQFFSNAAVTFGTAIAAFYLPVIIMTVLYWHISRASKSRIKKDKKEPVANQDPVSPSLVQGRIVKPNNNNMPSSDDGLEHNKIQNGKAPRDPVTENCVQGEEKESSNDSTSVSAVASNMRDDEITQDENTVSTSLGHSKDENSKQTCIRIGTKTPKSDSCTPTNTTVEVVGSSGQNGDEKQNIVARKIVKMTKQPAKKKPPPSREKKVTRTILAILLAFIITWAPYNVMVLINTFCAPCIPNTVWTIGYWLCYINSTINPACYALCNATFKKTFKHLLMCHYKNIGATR
# procedure.text: Antagonist activity at human muscarinic M2 receptor expressed in CHO cells co-expressing Gqi5 assessed as inhibition of acetylcholine-induced calcium mobilization
property: IC50 (nM)

>>> print(df.to_string())
                               input_smiles  value
0  Fc1ccc(-c2ccc(N[C@H]3C[C@@H]4CN(CC5CCOCC5)C[C@@H]4C3)nn2)cc1   2600
1  [2H]C([2H])(C1CCOCC1)N1C[C@H]2C[C@H](Nc3ccc(-c4cc(F)ccc4Cl)nn3)C[C@H]2C1    280
2  Fc1ccccc1-c1ccc(N[C@H]2C[C@@H]3CN(CC4CCOCC4)C[C@@H]3C2)nn1   2300

Cited source: ChEMBL document CHEMBL4837245
